Test system: HuH6 Clone 5 cell line
Experiment: In vitro cell proliferation assay (MTT), HuH6 Clone 5
Assay type: cell-based
Conditions: HUH-6-clone5; HuH6 Clone 5, 72 hr, MTT; read-out: EC50, anti-proliferative activity
metric: EC50

These recorded examples may help you get a feel for the data.
CNC(=O)c1cc(Oc2ccc(NC(=O)Nc3ccc(Cl)c(C(F)(F)F)c3)cc2)ccn1 [Sorafenib, reference compound]    1 to 3 µM
CC(=O)c1cc2cc(NC(=O)c3cc(NC(=O)c4ccc(CN5CCN(C)CC5)c(C(F)(F)F)c4)ccc3C)cnc2[nH]1    ≥ 1 µM

Form field: reported EC50 of CC(=O)c1cc2cc(NC(=O)c3cc(NC(=O)c4ccc(CN5CCC(N(C)C)C5)c(C(F)(F)F)c4)ccc3C)cnc2[nH]1 (stereo not shown)
≥ 1 µM

Form field: reported EC50 of CC(=O)c1cc2cc(NCc3cc(NC(=O)c4cncc(C(F)(F)F)c4)ccc3C)cnc2[nH]1
≥ 1 µM

Sourced from patent US9403823B2
